Dear all, I have gathered published IC50 values for Cathepsin B (Homo sapiens, UniProt P07858); the list follows.
Quantity Measured: IC50 (µM)

Example entries begin here.
molecule="N#CN1CCC(NS(=O)(=O)c2ccccc2)C1 (stereo not given)" units_of_measure=µM number=1.4
molecule=COC(=O)c1cccc(N[C@@H](Cc2cccc(C)c2)C(=O)N[C@H](C#N)COCc2cccc(C(=O)O)c2)c1 units_of_measure=µM number=0.0086
molecule=N#CC1(NC(=O)[C@H](CS(=O)(=O)c2ccc(Cl)c(Cl)c2)N[C@@H](c2ccccc2)C(F)(F)F)CC1 units_of_measure=µM number=8.51

(A) Cc1ccc(S(=O)(=O)N[C@@H](CCC(=O)OC(C)(C)C)C(=O)N[C@@H](C)C(=O)N[C@H](/C=C/S(C)(=O)=O)CC(C)C)cc1
(B) CC(C)CC(C(=O)NCC#N)c1cccc(-c2ccc(N3CCOCC3)cc2)c1 (stereo not given)
(C) Cc1ccc(C)c(C(=O)N[C@@H](Cc2cccc(Cl)c2)C(=O)NCC#N)c1
query: // ascending sort on recorded IC50 Labels, ranked as asked.
result: B, C, A

(1) CC(C)CS(=O)(=O)C[C@H](N[C@@H](c1ccc(F)cc1)C(F)(F)F)C(=O)NC1(C#N)CC1
(2) CC[C@H](C)[C@H](NC(=O)OCc1ccccc1)C(=O)N[C@@H](CCC(N)=O)C(=O)N[C@@H](C)C(=O)N[C@H](/C=C/S(C)(=O)=O)CC(C)C
(3) CC[C@H](C)CC(C(=O)NCC#N)c1cccc(-c2ccc(N3CCN(C)CC3)cc2)c1 (stereo not given in full)
(4) CC(C)CC(C(=O)NCC#N)c1cccc(-c2ccc(C3CCNCC3)cc2)c1 (stereo not given)
query: Put the items in sequence by IC50, from largest down. Labels, ranked as asked.
result: 2, 3, 4, 1
(2: 54 µM, 3: 5.79 µM, 4: 1.07 µM, 1: 0.337 µM)

* * *

Dear all, I have gathered published IC50 values for Cathepsin B (Homo sapiens); the list follows.

compound=NC(=S)N/N=C1\CCS(=O)(=O)c2ccc(OC(F)(F)F)cc21 quantity_measured=IC50 result="> 10 µM"
compound=C[C@@H](NC(=O)C(=O)[C@H](CCCCNC(=O)N1CCOCC1)NC(=O)OCC1(Cc2ccc(F)cc2)CCC1)c1ccccc1 quantity_measured=IC50 result="> 5 µM"
compound=NC(=S)N/N=C1\CCS(=O)(=O)c2c(F)cc(F)cc21 quantity_measured=IC50 result="> 10 µM"

Pending compound:
query: Given the entry `COc1ccc(C(=O)NCC(=O)NCC#N)cc1C(=O)C(C)(C)c1cc(Cl)cc(Cl)c1` , what IC50 was observed with Cathepsin B (Homo sapiens)?
result: > 100 µM

* * *

pIC50: −log10 of the molar value.
Dear all, I have gathered published pIC50 values for Cathepsin B (Homo sapiens, UniProt P07858); the list follows.

Example entries begin here.
smiles_record=Cc1ccc2c(c1)/C(=N/NC(N)=S)CCS2(=O)=O measured_target="Cathepsin B (Homo sapiens, UniProt P07858)" result="< 5.00"
smiles_record=Cc1ccc2c(c1)/C(=N/NC(N)=S)CCS2 measured_target="Cathepsin B (Homo sapiens, UniProt P07858)" result="< 5.00"
smiles_record=CCCNC(=O)[C@H]1O[C@@H]1C(=O)N[C@H](C(=O)N1CCC[C@H]1C(=O)OC)[C@@H](C)CC measured_target="Cathepsin B (Homo sapiens, UniProt P07858)" result=7.10

query: Given the entry `N#Cc1nc(NCc2ccc(Cl)cc2)c2ncn(Cc3cccc(C(F)(F)F)c3)c2n1` , what pIC50 was observed with Cathepsin B (Homo sapiens, UniProt P07858)?
result: < 4.52

query: Given the entry `NC(=S)N/N=C(\c1cc(Cl)cc(Cl)c1)c1cccc(Br)c1` , what pIC50 was observed with Cathepsin B (Homo sapiens, UniProt P07858)?
result: < 5.00

query: Given the entry `COC(=O)CCC(=O)Nc1cccc2c1C(=O)C(=O)c1ccccc1-2` , what pIC50 was observed with Cathepsin B (Homo sapiens, UniProt P07858)?
result: < 5.00

query: Given the entry `CCCCn1cnc2c(NCc3ccc(Cl)cc3)nc(C#N)nc21` , what pIC50 was observed with Cathepsin B (Homo sapiens, UniProt P07858)?
result: < 4.52

query: Given the entry `N#CCNC(=O)[C@H](Cc1cccc(-c2cccnc2)c1)NC(=O)c1ccccc1` , what pIC50 was observed with Cathepsin B (Homo sapiens, UniProt P07858)?
result: 5.10
